System: Escherichia coli TOP10
EXPERIMENT: shrunken log2 fold change of peptide-encoding DNA abundance (4.5 h post-induction vs induction); higher = less antimicrobial activity (less host growth inhibition)
DETAILS: time post-induction: 4.5 h; library: site-saturation at positions 5, 18, 19, 20
Each entry below lists one item and its recorded shrunken log2 fold change value.

| SEQUENCE CHAIN | shrunken log2 fold change |
| --- | --- |
| RRIRVRPPRLPRPRPRPYGYPRP | -1.16 |
| RRIRWRPPRLPRPRPRPDCKPRP | -0.0137 |
| RRIRFRPPRLPRPRPRPDEVPRP | -0.00705 |
| RRIRYRPPRLPRPRPRPTHAPRP | -0.0504 |
| RRIRCRPPRLPRPRPRPNAKPRP | 0.0347 |
| RRIRARPPRLPRPRPRPQVQPRP | 0.0275 |
| RRIRNRPPRLPRPRPRPTSEPRP | 0.194 |
| RRIRTRPPRLPRPRPRPTKRPRP | 0.139 |
| RRIRYRPPRLPRPRPRPFDHPRP | -0.0332 |
| RRIRCRPPRLPRPRPRPGYPPRP | -0.00859 |
| RRIRRRPPRLPRPRPRPVTYPRP | -0.0642 |
| RRIRQRPPRLPRPRPRPLNHPRP | 0.133 |
| RRIRDRPPRLPRPRPRPSGCPRP | 0.0451 |
| RRIRDRPPRLPRPRPRPCAHPRP | 0.07 |
| RRIRHRPPRLPRPRPRPCVAPRP | 0.0478 |
| RRIRHRPPRLPRPRPRPCVMPRP | -0.239 |
| RRIRPRPPRLPRPRPRPIWNPRP | -0.282 |
| RRIRFRPPRLPRPRPRPCDEPRP | 0.112 |
| RRIRLRPPRLPRPRPRPLCWPRP | 0.487 |

---

Test system: Escherichia coli TOP10
EXPERIMENT: shrunken log2 fold change of peptide-encoding DNA abundance (4.5 h post-induction vs induction); higher = less antimicrobial activity (less host growth inhibition)
DETAILS: time post-induction: 4.5 h; library: site-saturation at positions 5, 18, 19, 20
ENDPOINT: shrunken log2 fold change

| SEQUENCE CHAIN | ENDPOINT | MEASURED |
| --- | --- | --- |
| RRIRNRPPRLPRPRPRPMLKPRP | shrunken log2 fold change | -0.0393 |
| RRIRCRPPRLPRPRPRPMFLPRP | shrunken log2 fold change | -0.847 |
| RRIRNRPPRLPRPRPRPQQCPRP | shrunken log2 fold change | -0.0851 |
| RRIRARPPRLPRPRPRPNLWPRP | shrunken log2 fold change | 0.467 |
| RRIRSRPPRLPRPRPRPGIQPRP | shrunken log2 fold change | 0.0642 |
| RRIRPRPPRLPRPRPRPRLNPRP | shrunken log2 fold change | 0.307 |

---

Test system: Escherichia coli TOP10
EXPERIMENT: shrunken log2 fold change of peptide-encoding DNA abundance (4.5 h post-induction vs induction); higher = less antimicrobial activity (less host growth inhibition)
DETAILS: time post-induction: 4.5 h; library: site-saturation at positions 5, 18, 19, 20
ENDPOINT: shrunken log2 fold change

| SEQUENCE CHAIN | MEASURED |
| --- | --- |
| RRIRTRPPRLPRPRPRPKECPRP | -0.503 |
| RRIRFRPPRLPRPRPRPSFHPRP | -0.694 |
| RRIRYRPPRLPRPRPRPLASPRP | -0.556 |
| RRIRDRPPRLPRPRPRPAQRPRP | 0.152 |
| RRIRHRPPRLPRPRPRPYSKPRP | -1.03 |
| RRIRERPPRLPRPRPRPVCYPRP | -0.266 |
| RRIRGRPPRLPRPRPRPDCRPRP | 0.68 |
| RRIRYRPPRLPRPRPRPPRKPRP | 0.319 |
| RRIRYRPPRLPRPRPRPHREPRP | -0.00804 |
| RRIRIRPPRLPRPRPRPSDEPRP | -0.698 |
| RRIRERPPRLPRPRPRPDLLPRP | -0.183 |
| RRIRVRPPRLPRPRPRPDEQPRP | 0.353 |
| RRIRQRPPRLPRPRPRPFKWPRP | -0.185 |
| RRIRARPPRLPRPRPRPTKHPRP | 0.217 |
| RRIRVRPPRLPRPRPRPHEEPRP | 0.0138 |
| RRIRNRPPRLPRPRPRPSIRPRP | -0.0225 |
| RRIRWRPPRLPRPRPRPRIFPRP | 0.499 |
| RRIRNRPPRLPRPRPRPVCWPRP | 0.469 |
| RRIRCRPPRLPRPRPRPGCYPRP | -0.501 |

---

System: Escherichia coli TOP10
EXPERIMENT: shrunken log2 fold change of peptide-encoding DNA abundance (4.5 h post-induction vs induction); higher = less antimicrobial activity (less host growth inhibition)
DETAILS: time post-induction: 4.5 h; library: site-saturation at positions 5, 18, 19, 20

| SEQUENCE CHAIN | shrunken log2 fold change |
| --- | --- |
| RRIRRRPPRLPRPRPRPAQEPRP | 0.146 |
| RRIRRRPPRLPRPRPRPLAMPRP | -0.0111 |
| RRIRHRPPRLPRPRPRPRMKPRP | -0.223 |
| RRIRERPPRLPRPRPRPVLMPRP | 0.0559 |
| RRIRRRPPRLPRPRPRPANEPRP | 0.245 |
| RRIRIRPPRLPRPRPRPAENPRP | -0.0424 |
| RRIRVRPPRLPRPRPRPDTTPRP | -1.05 |
| RRIRWRPPRLPRPRPRPYKCPRP | 0.0561 |
| RRIRFRPPRLPRPRPRPIKWPRP | -0.101 |
| RRIRFRPPRLPRPRPRPFSTPRP | -0.0736 |
| RRIRFRPPRLPRPRPRPVLPPRP | -0.371 |
| RRIRVRPPRLPRPRPRPTSSPRP | -0.0575 |
| RRIRSRPPRLPRPRPRPTFFPRP | -0.0698 |
| RRIRDRPPRLPRPRPRPKIEPRP | -0.305 |
| RRIRERPPRLPRPRPRPSPVPRP | -0.268 |
| RRIRYRPPRLPRPRPRPTKVPRP | -0.235 |
| RRIRQRPPRLPRPRPRPGMLPRP | 0.105 |
| RRIRARPPRLPRPRPRPSTTPRP | 0.363 |
| RRIRHRPPRLPRPRPRPITRPRP | -0.0356 |
| RRIRERPPRLPRPRPRPGASPRP | 0.075 |
| RRIRYRPPRLPRPRPRPDIFPRP | -0.032 |
| RRIRFRPPRLPRPRPRPDATPRP | 0.486 |
| RRIRRRPPRLPRPRPRPGNVPRP | 0.418 |
| RRIRHRPPRLPRPRPRPQCDPRP | -0.13 |
| RRIRYRPPRLPRPRPRPVEKPRP | -0.129 |
| RRIRTRPPRLPRPRPRPGEEPRP | -0.00249 |
| RRIRMRPPRLPRPRPRPSMYPRP | 0.081 |
| RRIRMRPPRLPRPRPRPICQPRP | 3.43 |
| RRIRMRPPRLPRPRPRPTQTPRP | 2.06 |
| RRIRVRPPRLPRPRPRPNLAPRP | 0.0958 |
| RRIRMRPPRLPRPRPRPNDFPRP | 0.0282 |
| RRIRMRPPRLPRPRPRPHKMPRP | 0.193 |
| RRIRTRPPRLPRPRPRPRSSPRP | 0.0755 |
| RRIRARPPRLPRPRPRPRNFPRP | -0.0153 |
| RRIRMRPPRLPRPRPRPIWLPRP | 0.0637 |
| RRIRMRPPRLPRPRPRPLWNPRP | -0.182 |
| RRIRYRPPRLPRPRPRPRWHPRP | -0.124 |
| RRIRARPPRLPRPRPRPRRAPRP | 0.831 |
| RRIRTRPPRLPRPRPRPPPMPRP | 0.54 |
| RRIRMRPPRLPRPRPRPQFPPRP | 0.16 |
| RRIRCRPPRLPRPRPRPSQCPRP | -0.548 |
| RRIRTRPPRLPRPRPRPKICPRP | -0.292 |
| RRIRHRPPRLPRPRPRPQAHPRP | -0.0538 |

---

System: Escherichia coli TOP10;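 further: peptides expressed intracellularly from a pBAD plasmid library in pooled LB shake-flask culture, induced with 0.3% L-arabinose, DNA abundance read by NGS, three biological replicates, DESeq2 with apeglm shrinkage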
EXPERIMENT: shrunken log2 fold change of peptide-encoding DNA abundance (4.5 h post-induction vs induction); higher = less antimicrobial activity (less host growth inhibition)
DETAILS: time post-induction: 4.5 h; library: site-saturation at positions 5, 18, 19, 20
The following ranges of shrunken log2 fold change define the classes used here: c1 (below -0.1), c2 (-0.1 to below 0.006), c3 (0.006 or more)

| SEQUENCE CHAIN | DISCRETE LABEL |
| --- | --- |
| RRIRPRPPRLPRPRPRPNCIPRP | c1 |
| RRIRQRPPRLPRPRPRPKNIPRP | c1 |
| RRIRPRPPRLPRPRPRPLREPRP | c3 |
| RRIRFRPPRLPRPRPRPGTGPRP | c1 |
| RRIRLRPPRLPRPRPRPHHGPRP | c2 |
| RRIRIRPPRLPRPRPRPNCYPRP | c1 |
| RRIRMRPPRLPRPRPRPIHSPRP | c2 |
| RRIRARPPRLPRPRPRPIRSPRP | c1 |
| RRIRMRPPRLPRPRPRPILSPRP | c3 |
| RRIRQRPPRLPRPRPRPRTVPRP | c3 |
| RRIRHRPPRLPRPRPRPTVGPRP | c3 |
| RRIRVRPPRLPRPRPRPFKDPRP | c1 |
| RRIRERPPRLPRPRPRPHYCPRP | c2 |
| RRIRDRPPRLPRPRPRPPTMPRP | c2 |
| RRIRRRPPRLPRPRPRPLTWPRP | c3 |
| RRIRYRPPRLPRPRPRPCIAPRP | c1 |
| RRIRPRPPRLPRPRPRPNTKPRP | c3 |
| RRIRIRPPRLPRPRPRPASPPRP | c2 |
